# system.tested: U2AF65 1,2L 5Gly (human, UniProt P26368 141-342, S251G;T252G;V253G;V254G;P255G)
# Sequence (P26368 141-342 S251G/T252G/V253G/V254G/P255G, one chain of several): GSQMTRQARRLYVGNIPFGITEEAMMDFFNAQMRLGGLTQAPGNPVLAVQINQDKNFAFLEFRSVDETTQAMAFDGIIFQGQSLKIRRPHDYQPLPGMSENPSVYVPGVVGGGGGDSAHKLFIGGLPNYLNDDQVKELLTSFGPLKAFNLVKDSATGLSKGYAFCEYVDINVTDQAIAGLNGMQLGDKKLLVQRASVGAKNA
# assay.details: fluorescence anisotropy; Anisotropy: 100 mM NaCl, 15 mM HEPES pH 6.8, 0.2 mM TCEP, 0.1 U/ul Superase-In, 30 nM RNA, 23 C; smFRET: 50 mM HEPES pH 7.4, 100 mM NaCl, room temperature
assay.metric: Kd (nM)
Numbers only, in nM.

I have this binder here, CCCUUUUUUUUCC (ssRNA) [AdML Py tract 13mer] , and I need its recorded Kd.
61

Source listed as paper PMC4786784.
